# assay.system: T1, RXFP1 receptor (endogenous, on OVCAR5 cells) (UniProt Q9HBX9 1-757, limits assumed)
# T1 sequence (looked up): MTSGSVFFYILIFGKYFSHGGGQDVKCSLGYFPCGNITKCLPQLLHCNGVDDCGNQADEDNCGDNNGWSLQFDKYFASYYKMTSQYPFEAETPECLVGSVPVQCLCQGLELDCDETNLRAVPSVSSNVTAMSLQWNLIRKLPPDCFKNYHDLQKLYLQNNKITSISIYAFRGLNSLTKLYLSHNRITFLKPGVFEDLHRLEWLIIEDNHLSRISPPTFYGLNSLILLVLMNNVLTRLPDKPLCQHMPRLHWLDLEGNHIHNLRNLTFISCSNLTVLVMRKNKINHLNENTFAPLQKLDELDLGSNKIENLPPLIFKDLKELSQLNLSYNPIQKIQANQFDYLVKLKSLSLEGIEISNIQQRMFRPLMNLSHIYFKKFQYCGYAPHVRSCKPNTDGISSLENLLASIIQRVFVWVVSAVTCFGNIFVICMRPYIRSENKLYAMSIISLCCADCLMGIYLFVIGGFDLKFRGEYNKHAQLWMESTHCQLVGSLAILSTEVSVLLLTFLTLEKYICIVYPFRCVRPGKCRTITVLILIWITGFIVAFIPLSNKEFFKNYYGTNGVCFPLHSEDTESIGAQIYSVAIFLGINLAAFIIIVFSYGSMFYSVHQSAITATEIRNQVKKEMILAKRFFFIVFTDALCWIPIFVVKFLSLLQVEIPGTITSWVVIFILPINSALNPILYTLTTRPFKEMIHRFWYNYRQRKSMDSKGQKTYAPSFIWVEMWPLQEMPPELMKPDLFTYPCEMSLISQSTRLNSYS
# protocol: cell-based or functional assay
Starred links: 1 amine or outer side, 2 acyl side, 3 side chain; linkers in the order of their positions; H or OH if unused. Non-standard residues stand in square brackets, D forms with d. Groups on a side chain read outwards from the residue. *: point of attachment. TTDS = 4-[3-[2-[2-(3-aminopropoxy)ethoxy]ethoxy]propylamino]-4-oxo-butanoyl; γGlu = O=C(O)[C@H](CCC(=O)[*:2])N[*:1]; Stearoyl = CCCCCCCCCCCCCCCCCC(=O)*; Palmitoyl = CCCCCCCCCCCCCCCC(=O)*; Cit = NC(=O)NCCC[C@H](N)C(=O)O; αMeK = C[C@](N)(CCCCN)C(=O)O; Aib = CC(C)(N)C(=O)O
measure.name: EC50 (nM), OVCAR 5 cells (cAMP)
Numbers only; they are read as nM.

Example entries and their recorded answers appear below.
binder	readout.units	EC50 (nM), OVCAR 5 cells (cAMP)
Ac-LEGREKVRAK(Ac)I[Aib][Aib]EGK([TTDS-TTDS-γGlu-γGlu-γGlu-Stearoyl])STWS[Aib]RKK(Ac)-NH2 [peptide of SEQ ID NO: 6]	nM	0.27
Ac-LEGREKVR[Aib]K(Ac)I[Aib][Aib]EGK([TTDS-TTDS-TTDS-γGlu-γGlu-γGlu-Palmitoyl])STFS[αMeK]RAK(Ac)-NH2 [peptide of SEQ ID NO: 29]	nM	1.6
Ac-LEGREKVRAK(Ac)I[Aib][Aib]EGK([TTDS-TTDS-TTDS-γGlu-γGlu-γGlu-Palmitoyl])STFSRRAK(Ac)-NH2 [peptide of SEQ ID NO: 87]	nM	0.1

// below: EC50 (nM), OVCAR 5 cells (cAMP) requested for another binder
EC50 (nM), OVCAR 5 cells (cAMP) recorded for this binder, Ac-LEGREKVRA[Cit]I[Aib][Aib]EGK([TTDS-TTDS-TTDS-γGlu-γGlu-γGlu-Stearoyl])STFS[αMeK]RAK(Ac)-NH2 [peptide of SEQ ID NO: 56] , is 0.15
